target: Serine/threonine-protein kinase B-raf (Homo sapiens, UniProt P15056, V600E); test: Kinase Activity: The compounds prepared in Examples were tested for inhibitory activity against three subtypes of RAF, i.e., RAF1 Y340D Y341D (C-RAF), B-RAF normal type and B-RAF^V600E using Kinase Profiling Service (Invitrogen, U.S.) according to the manufacturer's instructions. The levels of enzymatic inhibition of the compounds were calculated as percent inhibition at various concentrations.
Sequence (P15056 2-766 V600E limits assumed): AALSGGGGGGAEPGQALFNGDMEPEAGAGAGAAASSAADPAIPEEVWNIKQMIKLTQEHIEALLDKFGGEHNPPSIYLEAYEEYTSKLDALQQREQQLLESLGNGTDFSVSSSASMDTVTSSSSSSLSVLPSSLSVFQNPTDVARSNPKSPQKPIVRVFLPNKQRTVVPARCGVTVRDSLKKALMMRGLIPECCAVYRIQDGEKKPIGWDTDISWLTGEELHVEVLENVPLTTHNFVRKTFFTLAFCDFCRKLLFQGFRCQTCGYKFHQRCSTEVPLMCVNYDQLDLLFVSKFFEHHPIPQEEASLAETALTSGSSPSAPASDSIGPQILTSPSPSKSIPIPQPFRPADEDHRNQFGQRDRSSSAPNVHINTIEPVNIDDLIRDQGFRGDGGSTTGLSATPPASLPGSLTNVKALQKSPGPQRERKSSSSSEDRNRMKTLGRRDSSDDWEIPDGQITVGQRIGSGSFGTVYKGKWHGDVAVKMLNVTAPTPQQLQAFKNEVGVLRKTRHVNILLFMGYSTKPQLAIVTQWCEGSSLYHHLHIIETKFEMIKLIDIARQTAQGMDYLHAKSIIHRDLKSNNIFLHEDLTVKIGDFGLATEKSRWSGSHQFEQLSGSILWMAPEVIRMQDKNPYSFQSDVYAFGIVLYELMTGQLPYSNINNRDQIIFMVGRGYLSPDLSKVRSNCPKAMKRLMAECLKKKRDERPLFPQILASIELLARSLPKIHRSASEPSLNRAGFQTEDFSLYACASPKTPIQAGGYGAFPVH
attribute measured: IC50 (nM)
Express your answer in nM, writing the number without its unit.

# lookup: IC50 of Cc1ccc2c(Nc3cccc(Cl)c3)nccc2c1NC(=O)c1csc2c(N)ncnc12
9

====

molecular target: Serine/threonine-protein kinase B-raf (Homo sapiens, UniProt P15056); assay: Kinase Activity: The compounds prepared in Examples were tested for inhibitory activity against three subtypes of RAF, i.e., RAF1 Y340D Y341D (C-RAF), B-RAF normal type and B-RAF^V600E using Kinase Profiling Service (Invitrogen, U.S.) according to the manufacturer's instructions. The levels of enzymatic inhibition of the compounds were calculated as percent inhibition at various concentrations.
Sequence (P15056 whole entry): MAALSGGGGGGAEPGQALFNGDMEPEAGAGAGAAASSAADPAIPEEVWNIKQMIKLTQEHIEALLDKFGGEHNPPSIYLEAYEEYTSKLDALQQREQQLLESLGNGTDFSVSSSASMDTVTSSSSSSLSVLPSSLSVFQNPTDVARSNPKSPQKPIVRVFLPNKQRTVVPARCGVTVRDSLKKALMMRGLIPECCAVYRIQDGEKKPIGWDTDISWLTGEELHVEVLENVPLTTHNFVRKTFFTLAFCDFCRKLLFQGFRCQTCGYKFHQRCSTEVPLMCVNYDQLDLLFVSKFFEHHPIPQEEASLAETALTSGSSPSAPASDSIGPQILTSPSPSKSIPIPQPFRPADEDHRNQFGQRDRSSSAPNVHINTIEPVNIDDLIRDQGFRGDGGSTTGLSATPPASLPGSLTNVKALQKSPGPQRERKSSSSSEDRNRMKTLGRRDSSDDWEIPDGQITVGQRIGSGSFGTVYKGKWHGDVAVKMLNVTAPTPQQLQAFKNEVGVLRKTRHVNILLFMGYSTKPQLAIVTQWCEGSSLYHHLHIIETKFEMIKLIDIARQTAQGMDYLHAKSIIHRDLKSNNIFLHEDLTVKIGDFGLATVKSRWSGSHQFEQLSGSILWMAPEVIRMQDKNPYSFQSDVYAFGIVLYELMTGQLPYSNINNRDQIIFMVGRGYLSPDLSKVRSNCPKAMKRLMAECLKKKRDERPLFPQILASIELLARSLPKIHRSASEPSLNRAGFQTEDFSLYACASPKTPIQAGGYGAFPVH
attribute measured: IC50

// query IC50 value for entry Cc1ccc2c(Nc3cccc(Cl)c3)nccc2c1NC(=O)c1csc2c(N)ncnc12
66 nM

Hey, just so you know, these numbers are from ChEMBL document CHEMBL3886288.
